Tested on: Nucleic Acid
Experiment: Binding affinity to calf thymus DNA assessed as change in melting temperature at 10 uM relative to control
Type: nucleic-acid assay
Conditions: Bos taurus
Assignment: determine reported ΔTm for the given molecules.
# number only, unit °C dropped from output

Qu. Output measured ΔTm for this item: CCN(CC)CCNc1ccc2ncn3c4ccc(OC)cc4c(=O)c1c23
Ans. 4.5

Qu. Complete the entry with ΔTm for CCN(CC)CCNc1ccc2ncn3c4cc(OC)c(OC)c(O)c4c(=O)c1c23
Ans. 1

Qu. Consider the molecule CCc1nc2ccc(NCCN(C)C)c3c(=O)c4ccccc4n1c23 . State its measured ΔTm.
Ans. 5.1

Qu. Give the value of ΔTm reported for the following: CCN(CC)CCNc1ccc2nc(C)n3c4ccc(O)cc4c(=O)c1c23
Ans. 8.6

Qu. Could you please provide reported ΔTm for CCN(CC)CCNc1ccc2ncn3c4ccccc4c(=O)c1c23 ? Thanks!
Ans. 6.4

Qu. Look up and report measured ΔTm for this entry: CCN(CC)CCNc1ccc2ncn3c4ccc(O)cc4c(=O)c1c23
Ans. 4.5

Qu. Return ΔTm (reported value) for this molecule: CN(C)CCCNc1ccc2ncn3c4ccccc4c(=O)c1c23
Ans. 5.2

###

Biological target: Ribosyldihydronicotinamide dehydrogenase [quinone] (Homo sapiens, UniProt P16083)
Sequence (P16083 whole entry): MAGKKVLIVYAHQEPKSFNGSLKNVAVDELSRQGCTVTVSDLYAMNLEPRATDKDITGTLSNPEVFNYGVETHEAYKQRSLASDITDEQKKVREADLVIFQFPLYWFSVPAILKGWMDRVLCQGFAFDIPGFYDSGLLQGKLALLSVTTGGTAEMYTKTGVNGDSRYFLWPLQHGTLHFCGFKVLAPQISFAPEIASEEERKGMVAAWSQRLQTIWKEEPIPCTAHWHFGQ
Test: Inhibition of human recombinant NQO2 assessed as reduction of DCPIP by spectrophotometry
Parameter Measured: IC50 (nM)
Form entry: value (nM) — number only.

Qu. # return recorded IC50 for entry CN(C)CCNc1ccc2ncn3c4ccccc4c(=O)c1c23
Ans. 830

Qu. Report measured IC50; entry is CCN(CC)CCNc1ccc2ncn3c4ccccc4c(=O)c1c23
Ans. 427

Qu. Provide one value: measured IC50 of CN(C)CCNc1ccc2ncn3c4ccc(O)cc4c(=O)c1c23
Ans. 296

Qu. Find the measured IC50 of CCN(CC)CCNc1ccc2ncn3c4cc(OC)c(OC)c(O)c4c(=O)c1c23 and report it.
Ans. 6

Qu. Answer with reported IC50 of Cc1nc2ccc(NCCN(C)C)c3c(=O)c4ccccc4n1c23
Ans. 323

Qu. State its IC50: CCc1nc2ccc(NCCN(C)C)c3c(=O)c4ccccc4n1c23
Ans. 693

Qu. Output measured IC50 for this item: CCN(CC)CCNc1ccc2ncn3c4c(OC)ccc(OC)c4c(=O)c1c23
Ans. 17
